# Test system: MCF-7 (human breast cancer) cell line
# METHOD DESCRIPTION: MTT cell proliferation (cytotoxicity) assay, MCF-7
# Format: cell-based
# CONDITION DESCRIPTION: Homo sapiens, MCF7, 72 h, average of two separate determinations, Table 2

{"columns": ["MOLECULE", "IC50"],
 "data": [
  ["O=C(Nc1ccc(-c2nc3c(c(N4CCOCC4)n2)CSCC3)cc1)c1cc(-c2ccc(C(F)(F)F)cc2)ncn1 [Compound 13c]", "> 100 µM"],
  ["COc1ccc(-c2cc(C(=O)Nc3ccc(-c4nc5c(c(N6CCOCC6)n4)CS(=O)(=O)CC5)cc3)ncn2)cc1 [Compound 14b]", "89.6 µM"],
  ["O=C(Nc1ccc(-c2nc3c(c(N4CCOCC4)n2)CSCC3)cc1)c1cc(-c2ccc(F)cc2)ncn1 [Compound 13d]", "> 100 µM"],
  ["O=C(Nc1ccc(-c2nc3c(c(N4CCOCC4)n2)CS(=O)(=O)CC3)cc1)c1cc(-c2ccccc2)ncn1 [Compound 14g]", "> 100 µM"]
]}
